# ASSAY_SYSTEM: BRD4-BD2 (Homo sapiens (Human), UniProt O60885)
# PROCEDURE_TEXT: BRD4 AlphaScreen Assay (Example A2), BRD4-BD2
# Type: binding
# ASSAY_CONDITIONS: read-out: BRD4 BD-2 enzyme IC50
pIC50: −log10 of the molar value.
PROPERTY_MEASURED: pIC50

MOLECULE: Cc1noc(C)c1-c1ccc2[nH]c(=O)n3c2c1OCC3c1cccnc1C(=O)NCC(F)(F)F (single isomer, unassigned) [Example 136]
RESULT: > 7.00

// next entry
*Q* Answer with pIC50 of Cc1noc(C)c1-c1ccc2[nH]c(=O)n3c2c1OCC3c1cccnc1C(=O)NCCO (single isomer, unassigned) [Example 135] measured for BRD4-BD2 (Homo sapiens (Human), UniProt O60885).
*A* > 7.00
